B1: glmS ribozyme (parent)
chain: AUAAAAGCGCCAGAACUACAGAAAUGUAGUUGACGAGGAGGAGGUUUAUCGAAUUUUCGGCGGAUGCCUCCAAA

Variants of: B1
procedure details: self-cleavage kobs at 40 uM GlcN6P; higher = faster cleavage; RNA array
condition summary: with glucosamine-6-phosphate
Fewer inactive variants are shown than the library holds.
parameter measured: self-cleavage kobs at 40 uM GlcN6P (s⁻¹)
Answers are plain numbers, in s⁻¹.

These solved cases illustrate the format of a correct answer.
mut: G29U C71U
units of measure: s⁻¹
self-cleavage kobs at 40 uM GlcN6P: 0.000132

mut: G13A C50G C58A C70U
units of measure: s⁻¹
self-cleavage kobs at 40 uM GlcN6P: 6.62e-05

mut: A39U U69C
units of measure: s⁻¹
self-cleavage kobs at 40 uM GlcN6P: 0.000261

mut: A53C U56G
units of measure: s⁻¹
self-cleavage kobs at 40 uM GlcN6P: 7.77e-05

mut: U47G C58U C70A
units of measure: s⁻¹
self-cleavage kobs at 40 uM GlcN6P: 7.14e-05

Can you give me self-cleavage kobs at 40 uM GlcN6P for all of these, one by one?
1. C11U U30A
2. C34U U69A
3. A53G G66U

1: 8.01e-05; 2: 0.000116; 3: 4.34e-05
